Catalogue of MIC50 values
Test system: Mycobacterium tuberculosis
Test: Antimycobacterial activity against Mycobacterium tuberculosis H37Ra assessed as inhibition of microbial growth incubated for 6 days by MABA method
Type: functional
Measurement Setup: 144 h
Record the result as number plus unit.

Return value of MIC50 for input `CCc1cn([C@@H]2O[C@H](CO)[C@@H](O)[C@@H]2F)c(=O)nc1N` , no commentary.
100 µg/mL

###

Catalogue of inhibition of growth at 10 µg/mL values
System: Mycobacterium tuberculosis
Test: Antimycobacterial activity against Mycobacterium tuberculosis H37Ra assessed as inhibition of microbial growth at 10 ug/ml incubated for 6 days by MABA method
Assay type: functional
Measurement Setup: 144 h, read-out: GI
Number in %, nothing else.

Molecule	Unit Abbrev	inhibition of growth at 10 µg/mL
CCc1cn([C@@H]2O[C@H](CO)[C@@H](Br)[C@@H]2F)c(=O)[nH]c1=O	%	56
COCc1cn([C@@H]2O[C@H](CO)[C@@H](O)[C@@H]2O)c(=O)nc1N	%	50
O=c1[nH]c(=S)c(CO)cn1[C@@H]1O[C@H](CO)[C@@H](O)[C@@H]1O	%	90

Proceed to the following item.
Return value of inhibition of growth at 10 µg/mL for input N[C@@H]1CONC1=O [CYCLOSERINE] , no commentary.
60
